Test system: Colo205
Experiment: Reverse Phase Protein Analysis (RPPA)
Format: cell-based, human
Settings: % change from DMSO (matched cell line)
Assignment: determine reported Avg (ERK 1 2) for the given molecules.
Just the number in %, nothing appended.

Per the record, `O=C(Nc1ccc2[nH]nc(-c3ccncc3)c2c1)[C@@H]1CCN(CC(=O)N2CCN(c3ccc(-c4ncccn4)cc3)CC2)C1` has Avg (ERK 1 2) of −31.87

Short answer for `CC(C)Nc1cc(-c2c[nH]c(C(=O)N[C@H](CO)c3cccc(Cl)c3)c2)c(Cl)cn1` : Avg (ERK 1 2) was −18.83

Briefly, Avg (ERK 1 2) measured for Cc1cnc(Nc2ccc(F)cc2Cl)nc1-c1c[nH]c(C(=O)N[C@H](CO)c2cccc(Cl)c2)c1 [Vx-11e] : −12.32

Given item `Cn1nccc1Nc1nccc(-c2ccn([C@H](CO)c3ccc(Cl)c(F)c3)c(=O)c2)n1` , the value recorded as its Avg (ERK 1 2) is −3.33

----------
Tested on: HT29
Experiment: Reverse Phase Protein Analysis (RPPA)
Format: cell-based
Conditions: % change from DMSO (matched cell line)
Give measured Avg(S6 Ribo Prot S240 244) for each item. Keep answers brief.
Numeric answer only, unit % assumed.

Lab entry: HT29 assay, compound Cc1cnc(Nc2ccc(F)cc2Cl)nc1-c1c[nH]c(C(=O)N[C@H](CO)c2cccc(Cl)c2)c1 [Vx-11e] , Avg(S6 Ribo Prot S240 244) = −24.35

Query Cn1nccc1Nc1nccc(-c2ccn([C@H](CO)c3ccc(Cl)c(F)c3)c(=O)c2)n1 [GDC-0994] on HT29; Avg(S6 Ribo Prot S240 244) returned: −21.74

HT29 data for CC(C)Nc1cc(-c2c[nH]c(C(=O)N[C@H](CO)c3cccc(Cl)c3)c2)c(Cl)cn1 [BVD-523] ; its Avg(S6 Ribo Prot S240 244): −25.67

Entry O=C(Nc1ccc2[nH]nc(-c3ccncc3)c2c1)[C@@H]1CCN(CC(=O)N2CCN(c3ccc(-c4ncccn4)cc3)CC2)C1 [SCH772984] ; assay system HT29; Avg(S6 Ribo Prot S240 244) recorded at −25.73

----------
Assay: Phase I study: pharmacokinetic analysis
Assay type: in vivo, human
Settings: human, plasma, oral, 20 mg, 20 mg BID; Day 15; read-out: AUC0-12
measured.endpoint: AUC(0-t) (ng·h/mL)
API: value field is a number in ng·h/mL; no unit string.

The reported AUC(0-t) of the compound CC(C)Nc1cc(-c2c[nH]c(C(=O)N[C@H](CO)c3cccc(Cl)c3)c2)c(Cl)cn1 [BVD-523] was 98.7

----------
System: dose-escalated A375 cells
Test: Proliferation assay (Alamar Blue, 96 h) in dose-escalated A375 cell lines
Assay type: cell-based, human
Details: Homo sapiens, A-375, read-out: Relative IC50, Month 3; Dab/Tram-escalated line
measured.endpoint: pIC50
Units for pIC50: none; it is -log10 of a concentration expressed in mol/L.

The molecule `CC(C)(C)c1nc(-c2cccc(NS(=O)(=O)c3c(F)cccc3F)c2F)c(-c2ccnc(N)n2)s1` showed pIC50 equal to 7.75

----------
Tested on: HT29
Assay: Reverse Phase Protein Analysis (RPPA)
Assay type: cell-based
Conditions: % change from DMSO (matched cell line)
measured.endpoint: Avg (mTOR S2481)
Express the reported value numerically, then name its unit.

Form field Avg (mTOR S2481), entry `CC(C)Nc1cc(-c2c[nH]c(C(=O)N[C@H](CO)c3cccc(Cl)c3)c2)c(Cl)cn1` : −8.64%

Just so you know, measured Avg (mTOR S2481) for `O=C(Nc1ccc2[nH]nc(-c3ccncc3)c2c1)[C@@H]1CCN(CC(=O)N2CCN(c3ccc(-c4ncccn4)cc3)CC2)C1` came out at 13.93%

Looking up `Cn1nccc1Nc1nccc(-c2ccn([C@H](CO)c3ccc(Cl)c(F)c3)c(=O)c2)n1` , I see its Avg (mTOR S2481) listed as 3.23%

# Avg (mTOR S2481) (compound: Cc1cnc(Nc2ccc(F)cc2Cl)nc1-c1c[nH]c(C(=O)N[C@H](CO)c2cccc(Cl)c2)c1 [Vx-11e] ) is 0.52%

----------
Would you mind telling me the reported Avg (MAK1 S360) of each entry?
Tested on: Colo205
Test: Reverse Phase Protein Analysis (RPPA)
Type: cell-based, human
Conditions: % change from DMSO (matched cell line)
A number alone suffices; assume %.

Readout Avg (MAK1 S360) for Cc1cnc(Nc2ccc(F)cc2Cl)nc1-c1c[nH]c(C(=O)N[C@H](CO)c2cccc(Cl)c2)c1 [Vx-11e] , test system Colo205, was 6.22

The molecule Cn1nccc1Nc1nccc(-c2ccn([C@H](CO)c3ccc(Cl)c(F)c3)c(=O)c2)n1 [GDC-0994] , tested on Colo205, showed Avg (MAK1 S360) of 0.82

Param item: O=C(Nc1ccc2[nH]nc(-c3ccncc3)c2c1)[C@@H]1CCN(CC(=O)N2CCN(c3ccc(-c4ncccn4)cc3)CC2)C1 [SCH772984] ; param system: Colo205; output Avg (MAK1 S360): 7.54

The reported Colo205 Avg (MAK1 S360) of CC(C)Nc1cc(-c2c[nH]c(C(=O)N[C@H](CO)c3cccc(Cl)c3)c2)c(Cl)cn1 [BVD-523] is 14.69

----------
Test system: AN3Ca
Experiment: Reverse Phase Protein Analysis (RPPA)
Format: cell-based
Conditions: % change from DMSO (matched cell line)
measured.endpoint: Avg (p90 RSK S380) (%)
Respond numerically; units are % and should not be typed.

Entry Cn1nccc1Nc1nccc(-c2ccn([C@H](CO)c3ccc(Cl)c(F)c3)c(=O)c2)n1 [GDC-0994] ; Avg (p90 RSK S380) = −29.44

Noted for Cc1cnc(Nc2ccc(F)cc2Cl)nc1-c1c[nH]c(C(=O)N[C@H](CO)c2cccc(Cl)c2)c1 [Vx-11e] : its Avg (p90 RSK S380) reads −28.41

Avg (p90 RSK S380) recorded for this compound, O=C(Nc1ccc2[nH]nc(-c3ccncc3)c2c1)[C@@H]1CCN(CC(=O)N2CCN(c3ccc(-c4ncccn4)cc3)CC2)C1 [SCH772984] , is −40.26

# compound CC(C)Nc1cc(-c2c[nH]c(C(=O)N[C@H](CO)c3cccc(Cl)c3)c2)c(Cl)cn1 [BVD-523] ; its Avg (p90 RSK S380) = −28.11

----------
System: HT29
Assay: Reverse Phase Protein Analysis (RPPA)
Type: cell-based
Conditions: % change from DMSO (matched cell line)
measured.endpoint: Avg (Bcl 2) (%)
Report the value in % with no unit label.

Short answer for `O=C(Nc1ccc2[nH]nc(-c3ccncc3)c2c1)[C@@H]1CCN(CC(=O)N2CCN(c3ccc(-c4ncccn4)cc3)CC2)C1` : Avg (Bcl 2) was −10.01

// Avg (Bcl 2) lookup, compound = `Cn1nccc1Nc1nccc(-c2ccn([C@H](CO)c3ccc(Cl)c(F)c3)c(=O)c2)n1` , result: 18.16

# Avg (Bcl 2) of Cc1cnc(Nc2ccc(F)cc2Cl)nc1-c1c[nH]c(C(=O)N[C@H](CO)c2cccc(Cl)c2)c1 [Vx-11e] = −16.73

For this compound ( `CC(C)Nc1cc(-c2c[nH]c(C(=O)N[C@H](CO)c3cccc(Cl)c3)c2)c(Cl)cn1` ), measured Avg (Bcl 2) is 10.68

----------
Tested on: HT29
Experiment: Reverse Phase Protein Analysis (RPPA)
Type: cell-based
Conditions: % change from DMSO (matched cell line)
Kindly state Avg (Cyclin D1) for each of the entries shown.
Supply the numeric figure in %, leaving out any unit text.

Entry `O=C(Nc1ccc2[nH]nc(-c3ccncc3)c2c1)[C@@H]1CCN(CC(=O)N2CCN(c3ccc(-c4ncccn4)cc3)CC2)C1` , Avg (Cyclin D1) reported as −36.66

// Avg (Cyclin D1) value for `CC(C)Nc1cc(-c2c[nH]c(C(=O)N[C@H](CO)c3cccc(Cl)c3)c2)c(Cl)cn1` : −37.21

Measured Avg (Cyclin D1), `Cn1nccc1Nc1nccc(-c2ccn([C@H](CO)c3ccc(Cl)c(F)c3)c(=O)c2)n1` : −35.69

Item: Cc1cnc(Nc2ccc(F)cc2Cl)nc1-c1c[nH]c(C(=O)N[C@H](CO)c2cccc(Cl)c2)c1 [Vx-11e] | Avg (Cyclin D1): −35.2

----------
Biological target: ROCKII (Homo sapiens)
Sequence (O75116 whole entry, species assumed): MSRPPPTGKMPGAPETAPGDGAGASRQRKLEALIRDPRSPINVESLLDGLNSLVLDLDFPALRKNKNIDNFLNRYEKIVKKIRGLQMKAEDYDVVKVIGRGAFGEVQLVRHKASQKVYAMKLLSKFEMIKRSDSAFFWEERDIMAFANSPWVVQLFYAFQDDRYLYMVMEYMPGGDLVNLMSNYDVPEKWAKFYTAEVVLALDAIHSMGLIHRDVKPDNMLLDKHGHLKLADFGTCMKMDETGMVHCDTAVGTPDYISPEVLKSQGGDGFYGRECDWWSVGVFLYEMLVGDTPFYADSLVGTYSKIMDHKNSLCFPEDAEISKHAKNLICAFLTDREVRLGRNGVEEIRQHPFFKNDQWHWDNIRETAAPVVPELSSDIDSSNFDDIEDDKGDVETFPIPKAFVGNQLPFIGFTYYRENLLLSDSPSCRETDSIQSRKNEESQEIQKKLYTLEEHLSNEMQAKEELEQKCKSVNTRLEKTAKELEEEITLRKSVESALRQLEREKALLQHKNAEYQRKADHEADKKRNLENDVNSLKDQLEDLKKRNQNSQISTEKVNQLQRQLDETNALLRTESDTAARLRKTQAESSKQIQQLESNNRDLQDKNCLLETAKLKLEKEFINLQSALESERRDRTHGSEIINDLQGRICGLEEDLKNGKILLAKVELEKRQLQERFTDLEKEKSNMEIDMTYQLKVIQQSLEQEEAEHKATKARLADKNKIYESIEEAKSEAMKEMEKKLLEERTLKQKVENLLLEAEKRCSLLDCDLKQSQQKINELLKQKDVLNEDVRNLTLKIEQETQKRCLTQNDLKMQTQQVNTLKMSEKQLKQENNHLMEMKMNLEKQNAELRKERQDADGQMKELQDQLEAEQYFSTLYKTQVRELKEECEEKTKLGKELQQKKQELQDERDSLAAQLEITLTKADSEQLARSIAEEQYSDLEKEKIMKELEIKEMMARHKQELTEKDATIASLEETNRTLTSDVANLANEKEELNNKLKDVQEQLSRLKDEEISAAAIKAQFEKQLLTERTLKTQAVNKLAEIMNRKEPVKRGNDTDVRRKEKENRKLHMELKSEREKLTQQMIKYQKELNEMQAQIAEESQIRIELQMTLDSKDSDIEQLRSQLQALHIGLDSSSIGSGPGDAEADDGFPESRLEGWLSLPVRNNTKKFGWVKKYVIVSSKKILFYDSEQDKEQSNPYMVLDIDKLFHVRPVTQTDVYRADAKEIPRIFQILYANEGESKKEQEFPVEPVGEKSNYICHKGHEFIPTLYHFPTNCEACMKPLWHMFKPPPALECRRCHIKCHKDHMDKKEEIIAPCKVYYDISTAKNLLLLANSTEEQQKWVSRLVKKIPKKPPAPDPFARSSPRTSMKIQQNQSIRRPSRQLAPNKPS
measured.endpoint: Ki (nM)
Only the number, expressed in nM, is required.

For `CC(C)Nc1cc(-c2c[nH]c(C(=O)N[C@H](CO)c3cccc(Cl)c3)c2)c(Cl)cn1` the molecule record lists Ki as 270

----------
For each entry below, report its Avg (Bax) value.
Tested on: MIAPaCa-2
Test: Reverse Phase Protein Analysis (RPPA)
Assay type: cell-based
Conditions: MIAPaca2; % change from DMSO (matched cell line)
# unit: % | format: bare number

Notebook: `Cn1nccc1Nc1nccc(-c2ccn([C@H](CO)c3ccc(Cl)c(F)c3)c(=O)c2)n1` , Avg (Bax) read as 3.48

According to the records, this compound `O=C(Nc1ccc2[nH]nc(-c3ccncc3)c2c1)[C@@H]1CCN(CC(=O)N2CCN(c3ccc(-c4ncccn4)cc3)CC2)C1` displays Avg (Bax) of 15.67

The measured Avg (Bax) associated with Cc1cnc(Nc2ccc(F)cc2Cl)nc1-c1c[nH]c(C(=O)N[C@H](CO)c2cccc(Cl)c2)c1 [Vx-11e] reads 4.33

Entry `CC(C)Nc1cc(-c2c[nH]c(C(=O)N[C@H](CO)c3cccc(Cl)c3)c2)c(Cl)cn1` , Avg (Bax) reported as 23.44
